tested_system: Bile acid receptor (Homo sapiens, UniProt Q96RI1)
experiment_notes: Agonist activity at human FXR assessed as SRC1 coactivator peptide recruitment by cell free FRET assay
Format: functional
quantity: EC50

Some molecules with recorded EC50:
molecule	val
CCC(CC)c1onc(-c2c(Cl)cccc2Cl)c1COc1ccc(/C=C/c2cccc(C(=O)O)c2)c(Cl)c1	0.28 µM
CC(C)c1onc([C@H]2C[C@@H]2c2c(Cl)cccc2Cl)c1COc1ccc(/C=C/c2cccc(C(=O)O)c2)c(Cl)c1 (relative stereo)	> 10 µM
CC(C)c1onc(COc2ccc(Cl)c(Cl)c2)c1COc1ccc(/C=C/c2cccc(C(=O)O)c2)c(Cl)c1	> 10 µM

Here is the next item to consider.
Query: EC50; subject: CC(C)c1onc(COc2cc(Cl)cc(Cl)c2)c1COc1ccc(/C=C/c2cccc(C(=O)O)c2)c(Cl)c1 > 10 µM

###

tested_system: Bile acid receptor (Homo sapiens)
Sequence (Q96RI1 whole entry): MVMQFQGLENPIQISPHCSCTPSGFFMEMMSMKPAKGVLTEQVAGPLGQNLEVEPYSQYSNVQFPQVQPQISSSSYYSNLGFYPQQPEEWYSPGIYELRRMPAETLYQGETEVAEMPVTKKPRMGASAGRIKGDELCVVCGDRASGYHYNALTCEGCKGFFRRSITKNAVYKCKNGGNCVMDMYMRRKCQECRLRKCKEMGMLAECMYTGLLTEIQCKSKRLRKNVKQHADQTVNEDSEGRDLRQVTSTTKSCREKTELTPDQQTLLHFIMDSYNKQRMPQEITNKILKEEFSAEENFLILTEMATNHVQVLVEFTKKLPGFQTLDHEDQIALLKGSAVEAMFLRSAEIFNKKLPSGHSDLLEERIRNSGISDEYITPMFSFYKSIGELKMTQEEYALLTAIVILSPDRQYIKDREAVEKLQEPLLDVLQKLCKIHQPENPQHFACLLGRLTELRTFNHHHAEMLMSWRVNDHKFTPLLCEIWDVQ
experiment_notes: Agonist activity at human FXR transfected in african green monkey CV1 cells by luciferase reporter gene transient transfection assay
Type: functional, cell-based, CV-1
quantity: log10(EC50) (log10 of the value in nM)
// do not treat as linear: log10 of EC50, unit nM

Consider the reported log10(EC50) for these compounds:
Cc1cc(Cl)cc(C)c1OCc1noc(C(C)C)c1COc1ccc(/C=C/c2cccc(C(=O)O)c2)c(Cl)c1 2.04
CC(C)c1onc(COc2ccccc2)c1COc1ccc(/C=C/c2cccc(C(=O)O)c2)c(Cl)c1 3.08

What does the record list as log10(EC50) for CC(C)c1onc(COc2cccc(Cl)c2Cl)c1COc1ccc(/C=C/c2cccc(C(=O)O)c2)c(Cl)c1 ? 2.80

So what's the measured log10(EC50) for this one? CC(C)c1onc(COc2cccc3ccccc23)c1COc1ccc(/C=C/c2cccc(C(=O)O)c2)c(Cl)c1 3.08

###

Listed here: items and their measured %max.
tested_system: Bile acid receptor (Homo sapiens) (UniProt Q96RI1)
Sequence (whole entry): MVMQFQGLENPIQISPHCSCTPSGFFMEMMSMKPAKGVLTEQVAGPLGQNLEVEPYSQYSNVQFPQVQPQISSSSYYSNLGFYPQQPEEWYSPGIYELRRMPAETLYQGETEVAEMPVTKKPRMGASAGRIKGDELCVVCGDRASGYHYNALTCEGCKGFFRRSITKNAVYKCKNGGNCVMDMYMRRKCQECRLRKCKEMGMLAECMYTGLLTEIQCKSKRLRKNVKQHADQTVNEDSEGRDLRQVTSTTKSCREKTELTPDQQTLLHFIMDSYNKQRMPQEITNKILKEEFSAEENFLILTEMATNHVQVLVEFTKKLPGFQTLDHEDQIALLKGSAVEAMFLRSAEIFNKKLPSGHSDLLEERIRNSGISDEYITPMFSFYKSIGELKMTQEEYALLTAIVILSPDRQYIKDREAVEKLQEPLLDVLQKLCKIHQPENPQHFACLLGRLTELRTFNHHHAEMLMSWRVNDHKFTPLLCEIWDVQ
experiment_notes: Agonist activity at human FXR assessed as SRC1 peptide interaction with receptor ligand binding domain by FRET assay relative to GW-4064
Write the number in % without appending the unit.

CC(C)c1onc(COc2cccc(Cl)c2Cl)c1COc1ccc(/C=C/c2cccc(C(=O)O)c2)c(Cl)c1 82
CCC(CC)c1onc(-c2c(Cl)cccc2Cl)c1COc1ccc(/C=C/c2cccc(C(=O)O)c2)c(Cl)c1 82

Proceeding to the next compound to report its %max.
What %max value was documented for this compound, CC(C)c1onc(COc2cccc3ccccc23)c1COc1ccc(/C=C/c2cccc(C(=O)O)c2)c(Cl)c1 ? 79
